# Tested on: SK-OV-3
# Run description: NCI tumour cell line growth inhibition, 48 h
Activity calls are given as the source filed them. No stated cut-off is given here; in the data, active = GI50 up to about 1.1 µM and inactive = higher.
Experimental endpoint: GI50

## Task Need GI50 of C=C(CCOC)CCC1CCCCC(=C)C1=O (stereo unspecified) , thanks.
## Result > 100 µM (inactive)

## Task Need GI50 of O=C1c2cc([N+](=O)[O-])cnc2S(=O)(=O)N1c1ccc(Oc2ccccc2)cc1 , thanks.
## Result > 100 µM (inactive)

## Task Need GI50 of Cc1ccc(S(=O)(=O)NC(=O)NC(CCCCN)C(=O)O)cc1 (stereo unspecified) , thanks.
## Result > 100 µM (inactive)

## Task Need GI50 of S=c1[nH]c(=S)c2cc(Sc3ccc4[nH]c(=S)[nH]c(=S)c4c3)ccc2[nH]1 , thanks.
## Result 24.3 µM (inactive)

## Task Need GI50 of Cc1[nH]nc(C(=O)N/N=C/c2cccs2)c1/N=N\N(C)C , thanks.
## Result 19.8 µM (inactive)

## Task Need GI50 of Cc1ccc(-n2nnc(C#N)c2O)cc1 , thanks.
## Result > 100 µM (inactive)

## Task Need GI50 of Nc1cccc(CCN2CCN(CCCc3ccccc3)CC2)c1 , thanks.
## Result > 100 µM (inactive)

## Task Need GI50 of Cc1ccc(-n2cnc(C(=N)C#N)c2N)cc1 , thanks.
## Result > 100 µM (inactive)

## Task Need GI50 of O=C1/C(=C/c2ccc(Cl)cc2)N=C(c2ccccc2)N1c1nc2ccccc2s1 , thanks.
## Result > 100 µM (inactive)

## Task Need GI50 of COc1cc(C(CC(OC)OC)=C(C#N)C#N)cc(OC)c1OC , thanks.
## Result 32.4 µM (inactive)

## Task Need GI50 of COC(=O)C1=C(C)NC(CF)=C(C(=O)OC)C1c1cccc2c(=O)c3ccccc3oc12 (stereo unspecified) , thanks.
## Result 26.5 µM (inactive)

---

# Test system: OVCAR-3
# Run description: NCI tumour cell line growth inhibition, 48 h
Calls of active or inactive are those of the source. Cut-off read from the data, not from the text of the source: active = GI50 up to about 1.1 µM and inactive = higher.
So I've got a bunch of molecules here, and I need their GI50 values.

## Task Param readout = GI50; param system = OVCAR-3; param query = CCOC(=O)CC(C)C(C#N)(OP1(=O)OC(c2ccccc2)C(C)N1C)c1ccccc1 (stereo unspecified) ; response: value
## Result 50.7 µM (inactive)

## Task Param readout = GI50; param system = OVCAR-3; param query = N#C/C(=C/c1ccsc1)C(=O)c1ccccc1 ; response: value
## Result > 100 µM (inactive)

## Task Param readout = GI50; param system = OVCAR-3; param query = COc1ccc2c(c1)OCC1=C2Oc2ccccc2C1 ; response: value
## Result 33.6 µM (inactive)

## Task Param readout = GI50; param system = OVCAR-3; param query = Cc1c(O)c(=O)ccn1C1OC(CO)C(O)C1O (stereo unspecified) ; response: value
## Result > 100 µM (inactive)

## Task Param readout = GI50; param system = OVCAR-3; param query = CC1=C(Br)C(=O)C(C)=C(Br)C1=O.Cc1c(O)c(Br)c(C)c(O)c1Br ; response: value
## Result 1.83 µM (inactive)

## Task Param readout = GI50; param system = OVCAR-3; param query = COC1CC(OC2C(C)OC(OC3C(C)OC(OC4C(C)OC(O[C@H]5CC[C@@]6(C)C(=CC[C@]7(O)[C@@H]6C[C@@H](OC(=O)/C=C/c6ccccc6)[C@@]6(C)[C@]7(O)CC[C@@]6(O)C(C)=O)C5)CC4OC)CC3OC)CC2OC)OC(C)C1O (stereo partly specified) ; response: value
## Result 11 µM (inactive)

## Task Param readout = GI50; param system = OVCAR-3; param query = O=C1C=CC(=O)c2c1ccc1c3ccccc3n(-c3ccccn3)c21 ; response: value
## Result 24.7 µM (inactive)

## Task Param readout = GI50; param system = OVCAR-3; param query = Cc1ccc(-n2nnc(C#N)c2O)cc1 ; response: value
## Result > 100 µM (inactive)

## Task Param readout = GI50; param system = OVCAR-3; param query = CC(/C=C/c1ncccc1OCCCCCC(=O)O)=N\NC1=NCCN1 ; response: value
## Result > 100 µM (inactive)

## Task Param readout = GI50; param system = OVCAR-3; param query = CC(C)(C)OC(=O)N1CCC[C@H]1CSC[C@@H]1CCCN1C(=O)OC(C)(C)C ; response: value
## Result 22.4 µM (inactive)

## Task Param readout = GI50; param system = OVCAR-3; param query = CSC1=N/C(=C\c2ccc(C)cc2)C(=O)N1CN1CCOCC1 ; response: value
## Result > 100 µM (inactive)

## Task Param readout = GI50; param system = OVCAR-3; param query = Fc1ccc(F)c(/C=N/C23CC4CC(CC(C4)C2)C3)c1 ; response: value
## Result > 10 µM (inactive)

## Task Param readout = GI50; param system = OVCAR-3; param query = CSc1c(C#N)c(O)n(-c2ccc(Cl)cc2)c(=O)c1C(C)=O ; response: value
## Result 48.3 µM (inactive)

## Task Param readout = GI50; param system = OVCAR-3; param query = COC(=O)C1(Cc2ccc3c(c2)CCC3)Cc2ccccc2C1O (stereo unspecified) ; response: value
## Result 20.5 µM (inactive)

## Task Param readout = GI50; param system = OVCAR-3; param query = CCC1=CC2Cc3nc4cc(Cl)ccc4c(N)c3C(C1)C2 (stereo unspecified) ; response: value
## Result 7.29 µM (inactive)

## Task Param readout = GI50; param system = OVCAR-3; param query = CN(C)CCOc1ccc2[nH]c(C(=O)N3CC(CCl)c4c3cc([N+](=O)[O-])c3ccccc43)cc2c1 (stereo unspecified) ; response: value
## Result 1.87 µM (inactive)

## Task Param readout = GI50; param system = OVCAR-3; param query = CCc1nn(S(=O)(=O)c2ccc(C)cc2)c2c1CS(=O)(=O)CC2 ; response: value
## Result > 100 µM (inactive)

## Task Param readout = GI50; param system = OVCAR-3; param query = NS(=O)(=O)c1nnc(NC(=O)N(c2ccccc2)c2ccccc2)s1 ; response: value
## Result 19.5 µM (inactive)

## Task Param readout = GI50; param system = OVCAR-3; param query = COC(=O)[C@H](Cc1ccccc1)NC(=O)N(CCC#N)CCN(C(=O)N[C@@H](Cc1ccccc1)C(=O)OC)c1ccccc1 ; response: value
## Result 19.9 µM (inactive)

## Task Param readout = GI50; param system = OVCAR-3; param query = C[C@]12CCC3[C@@H](CC[C@@H]4c5nonc5CC[C@]34C)C1C/C(=N/O)C2=O (stereo partly specified) ; response: value
## Result 39.7 µM (inactive)

## Task Param readout = GI50; param system = OVCAR-3; param query = S=c1[nH]c(=S)c2cc(Sc3ccc4[nH]c(=S)[nH]c(=S)c4c3)ccc2[nH]1 ; response: value
## Result 36.1 µM (inactive)

---

So I've got a bunch of compounds here, and I need their GI50 values.
# Test system: PC-3
# Run description: NCI tumour cell line growth inhibition, 48 h
Activity calls are given as the source filed them. Cut-off read from the data, not from the text of the source: active = GI50 up to about 1.1 µM and inactive = higher.

## Task Param readout = GI50; param system = PC-3; param query = CCOC(=O)C1=C(C)N(c2ccc(Cl)cc2)C2(O)C=CC(O)=C3C(=O)c4ccccc4C(=O)C312 (stereo not drawn) ; response: value
## Result 3.34 µM (inactive)

## Task Param readout = GI50; param system = PC-3; param query = CC(=O)NC1C(OCc2ccccc2)OC(CO)C(O)C1OC(C)C(=O)NC(C(=O)NC(CCC(=O)Nc1ccc2c(c1)CN1C(=O)c3ccccc3C1=N2)C(N)=O)C(C)C (stereo not drawn) ; response: value
## Result > 100 µM (inactive)

## Task Param readout = GI50; param system = PC-3; param query = C/C1=C\[C@H](C)C[C@H](C)OC(=O)C[C@H](c2ccc(O)cc2)NC(=O)[C@@H](Cc2c(Br)[nH]c3ccccc23)N(C)C(=O)[C@H](C)NC(=O)[C@@H](C)C1 [JASPAMIDE] ; response: value
## Result 0.0667 µM (active)

---

# Tested on: DMS-273
# Run description: NCI tumour cell line growth inhibition, 48 h
The source made the active and inactive calls. Cut-off read from the data, not from the text of the source: active = GI50 up to about 1.1 µM and inactive = higher.
Respond with a class label; see Y (active), N (inactive)

## Task Which outcome did this test record for the molecule Cn1c2c(c3ccccc31)CCN(CCN1CCN(c3cccc(Cl)c3)CC1)C2=O ?
## Result N

## Task Which outcome did this test record for the molecule CC(C)(C)OC(=O)NCCc1cccc2c1oc1c(CCC(=O)O)cccc12 ?
## Result N

## Task Which outcome did this test record for the molecule O=C(O)CN(c1ccc(F)cc1)S(=O)(=O)c1ccccc1 ?
## Result N

## Task Which outcome did this test record for the molecule CC1(c2ccccc2)CC(c2cccc([N+](=O)[O-])c2)=NO1 (stereo unspecified) ?
## Result N

## Task Which outcome did this test record for the molecule CCOC(=O)C1(CC)CCCCC(=O)N1 (stereo unspecified) ?
## Result N

## Task Which outcome did this test record for the molecule COc1cc(C(CC(OC)OC)=C(C#N)C#N)cc(OC)c1OC ?
## Result N

## Task Which outcome did this test record for the molecule CN(C)c1cccc(-c2cc(O)c3cc4c(cc3n2)OCO4)c1 ?
## Result Y

## Task Which outcome did this test record for the molecule C=CCC12CC(=O)CCC1CC(=O)C2 (stereo unspecified) ?
## Result N

## Task Which outcome did this test record for the molecule CC1OC(=O)C(C(C)C)NC(=O)C(C(C)C)OC(=O)C(C(C)C)NC(=O)C(C)OC(=O)C(C(C)C)NC(=O)C(C(C)C)OC(=O)C(C(C)C)NC(=O)C(C)OC(=O)C(C(C)C)NC(=O)C(C(C)C)OC(=O)C(C(C)C)NC1=O (stereo unspecified) ?
## Result Y

## Task Which outcome did this test record for the molecule O=S1(=O)NN=C(NCc2ccc(Cl)cc2)c2ccccc21 ?
## Result N

## Task Which outcome did this test record for the molecule Clc1ccc(Nc2nc3ccccc3nc2-c2cccs2)cc1Cl ?
## Result N

## Task Which outcome did this test record for the molecule CN1C(=O)CN2C(Cl)(Cl)C2(c2ccccc2F)c2cc([N+](=O)[O-])ccc21 (stereo unspecified) ?
## Result N

## Task Which outcome did this test record for the molecule COc1ccc(C(=O)C(C(=O)CCC(=O)Nc2cccc(C(F)(F)F)c2)c2ccccc2)cc1 (stereo unspecified) ?
## Result N

## Task Which outcome did this test record for the molecule O=C(Nc1ccccc1)c1cccc([N+](=O)[O-])c1 ?
## Result N

## Task Which outcome did this test record for the molecule COC(OC)c1cccnc1C ?
## Result N

## Task Which outcome did this test record for the molecule Nc1ccn(CCCC(c2ccccc2)P(=O)(O)O)c(=O)n1 (stereo unspecified) ?
## Result N

## Task Which outcome did this test record for the molecule COC(=O)C1=Cc2cn(S(=O)(=O)c3ccc(C)cc3)c3cccc(c23)C(C=C(C)C)N1C(C)=O (stereo unspecified) ?
## Result N

## Task Which outcome did this test record for the molecule COC(=O)/C(=N\O)C(C(=O)C=C(C)C)C(=O)C(=O)Nc1ccccc1C (stereo unspecified) ?
## Result N

## Task Which outcome did this test record for the molecule c1ccc(/N=c2\snc3scc(-c4ccccc4)n23)cc1 ?
## Result N

## Task Which outcome did this test record for the molecule O=C1c2ccccc2C(=O)c2c(O)ccc(O)c21 ?
## Result N

## Task Which outcome did this test record for the molecule C=C1CCC2[C@@H](CCC3[C@]2(C)CCC[C@]3(C)C(=O)OC)[C@@H]1CC=O (stereo partly specified) ?
## Result N
